Give measured activity change, negative = cytotoxicity for each item. Keep answers brief.
tested on: UISO; assay: qHTS assay to identify novel small-molecules to repurpose for Merkel cell carcinoma treatment (AID 1296009); conditions: MCC and control cell lines, CellTiter-Glo viability, 72 h; series mostly up to 46 µM; note: % is set by controls: 0 for no effect and ±100 for the full control effect; nearly all actives have a fitted effect of over 60% in size
Results filed as inconclusive are left out. The source made the active and inactive calls. Calls come from the whole dose curve; as a rule, active = well fitted inhibition curve with a large enough effect; inconclusive = small, poorly fitted or top-dose-only effect; inactive = flat fitted curve, though single readings scatter.

Go through the items and report each one's activity change, negative = cytotoxicity.
1. NCCNCCNCCNCCN
2. C/C(=C(\CCOP(=O)(O)O)SC(=O)c1ccccc1)N(C=O)Cc1cnc(C)nc1N

Out:
1. 44% [at 9.22 µM] (inactive)
2. 22.4% [at 4.84 µM] (inactive)

Give measured activity change, negative = cytotoxicity for every item shown.
1. C[C@](N)(Cc1ccc(O)cc1)C(=O)O
2. NC(N)=NCCC[C@H](N)C(=O)O
3. N[C@@H](CSSC[C@H](N)C(=O)O)C(=O)O
4. O=c1[nH]c(=O)c2[nH]c(=O)[nH]c2[nH]1

Out:
17.6% [at 4.84 µM] (inactive)
9.23% [at 4.84 µM] (inactive)
9.88% [at 0.597 µM] (inactive)
-5.4% [at 9.22 µM] (inactive)

---

molecular target: Endonuclease 4 (Escherichia coli (strain K12)) (UniProt P0A6C1); assay: Counterscreen for APE1 Inhibitors: qHTS Validation Assay for Inhibitors of Endonuclease IV (AID 1708); note: % is set by controls: 0 for no effect and ±100 for the full control effect; conditions: E. coli endonuclease IV, DNA cleavage fluorescence; series mostly up to 57.1 µM
Results filed as inconclusive are left out. Activity calls are given as the source filed them. Calls come from the whole dose curve; as a rule, active = well fitted inhibition curve with a large enough effect; inconclusive = small, poorly fitted or top-dose-only effect; inactive = no such curve, though single readings can be large or run the other way.
ENDPOINT_NAME: outcome

Past entries and their recorded results:
MOLECULE	outcome
C=Cc1c(C)c2cc3[nH]c(cc4nc(cc5nc(cc1[nH]2)C(C)=C5CCC(=O)O)C(CCC(=O)O)=C4C)c(C)c3C=C	inactive
CC1=C(CC(=O)O)c2cc(F)ccc2/C1=C\c1ccc(S(C)=O)cc1 (stereo unspecified)	inactive
C#CCN(C)Cc1ccccc1	inactive
Nc1cc(=O)[nH]c(N)n1	inactive
CC(C)NC[C@H](O)c1ccc(O)c(O)c1	inactive

// batch mode: one outcome value per listed entry
1. CC1=C(CC(=O)O)c2cc(F)ccc2/C1=C\c1ccc(S(C)(=O)=O)cc1
2. CCCn1cnc2c1c(=O)n(CCCCC(C)=O)c(=O)n2C
3. NC(=O)c1ncn([C@@H]2O[C@H](CO)[C@@H](O)[C@H]2O)n1

Out:
inactive
inactive
inactive

Give one value of outcome per listed molecule.
1. CC(C)(C)c1onc(OCP(=O)(O)O)c1CC(N)C(=O)O (stereo unspecified)
2. CN(C)CC[C@@H](c1ccc(Cl)cc1)c1ccccn1
3. CC[C@H]1CN2CCc3cc(OC)c(OC)cc3[C@@H]2C[C@@H]1C[C@H]1NCCc2cc(OC)c(OC)cc21

Out:
1. inactive
2. inactive
3. inactive

---

test system: Dd2; experiment: qHTS profiling for inhibitors of Plasmodium falciparum proliferation (AID 504749); note: nearly all actives have a fitted effect of over 60% in size; details: P. falciparum in erythrocytes, SYBR Green DNA, 72 h; series mostly up to 28.7 µM
Inconclusive results are not listed. The source made the active and inactive calls. Calls follow the shape of the dose curve; as a rule, active = well fitted inhibition curve with a large enough effect; inconclusive = small, poorly fitted or top-dose-only effect; inactive = flat fitted curve, though single readings scatter.
Respond with a class label; see true for active, false for inactive

Recorded results for 10 compounds are shown here.
COMPOUND	STUDY_TARGET	LABEL_CLASS
O=C1NC(=O)[C@@]2(CCOc3ccc(F)cc32)N1	Dd2	false
O=C1O[C@H]([C@@H](O)CO)C(O)=C1O	Dd2	false
CCC(=O)c1ccc(O)cc1	Dd2	false
CC(=O)NC(Cc1ccccc1)C(=O)O (centres undefined)	Dd2	false
CC(=O)CCC(=O)O	Dd2	false
OCc1cc(C(O)CNCCCCCCOCCCCc2ccccc2)ccc1O (centres undefined)	Dd2	false
[Cl][In]([Cl])[Cl]	Dd2	true
COc1ccc2c(c1)C(=O)N(CCc1ccc(S(=O)(=O)NC(=O)NC3CCCCC3)cc1)C(=O)C2(C)C	Dd2	false
Nc1nc2c(ncn2CCC(CO)CO)c(=O)[nH]1	Dd2	false
CC1=C(CC(=O)O)c2cc(F)ccc2/C1=C\c1ccc(S(C)=O)cc1 (centres undefined)	Dd2	false

In: For O=C1OC(OC(=O)c2cccnc2Nc2cccc(C(F)(F)F)c2)c2ccccc21 (centres undefined) , which call appears in the assay record?
Out: false

In: Per the assay record, what outcome was assigned to Cc1cccc(C)c1NC(=O)CN(CC(=O)O)CC(=O)O ?
Out: false

In: Look up the recorded call for CCCCOc1cc(C(=O)OCCN(CC)CC)ccc1N in this test.
Out: false

In: Fill in: this test's call for CCCCN1CCCC[C@H]1C(=O)Nc1c(C)cccc1C is ___
Out: false

In: Each compound tested received a call. Report the one for CCn1cc(C(=O)O)c(=O)c2cnc(N3CCNCC3)nc21 .
Out: false

In: Short answer needed: outcome of this test for NCCNCCNCCN ?
Out: false

In: Hi, sorry to bother you, what did the test record for CCOc1nc2cccc(C(=O)O)c2n1Cc1ccc(-c2ccccc2-c2nn[nH]n2)cc1 ?
Out: false

In: Record lookup: outcome of this test for CC12CCC(CC1)C(C)(C)O2 ?
Out: false

In: For CCCCN(CCCC)CCCOC(=O)c1ccc(N)cc1 , which call appears in the assay record?
Out: false

In: Would you mind telling me which call this test gave CCCOC(=O)c1ccccc1 ?
Out: false

In: // param item: CC(C)(C)C(=O)C(Oc1ccc(Cl)cc1)n1ccnc1 (centres undefined) ; yields the recorded call
Out: true

In: Name the outcome recorded for OCC(O)CN1CCN(c2ccccc2)CC1 (centres undefined) in the assay.
Out: false

In: Write down the call the test reported for this compound. Item: CN1CCC[C@@H]1Cc1c[nH]c2ccc(CCS(=O)(=O)c3ccccc3)cc12
Out: true

In: # outcome recorded in this test, key = COc1ccccc1O
Out: false
